Method description: MMV: MTT Cytotoxicity Assay Day 7 pi of Assay #10 (NO washout), U87-CD4-CCR5 cells, % cell death @ 5mM compound
Format: toxicity, cell-based
Stated conditions: human, u87-cd4-ccr5, 5000 µM
Overview of reported % Cell Death across a group of compounds:
No unit in the answer, only the number.

Examples with their reported % Cell Death follow.
Compound: CCc1c(C)c(=N)c2ccccc2n1C.I
% Cell Death: -10

Compound: CCOc1ccc(-n2cc(-c3ccccc3)c3c(SCc4cc(C)ccc4C)ncnc32)cc1
% Cell Death: -1

Compound: COc1ccc(-c2nonc2NC(=O)c2cccc(Cl)c2)cc1OC
% Cell Death: 100

We now examine a further compound.
For record COc1cc(CNCCc2ccc(Cl)cc2)cc(OC)c1O the listed % Cell Death is 18

---

Form field: % Cell Death (one value per entry).
Method description: MMV: MTT Cytotoxicity Assay Day 3 pi, U87-CD4-CXCR4 cells, % cell death @ 5mM compound
Assay type: toxicity, cell-based
Stated conditions: human, u87-cd4-cxcr4, 5000 µM
Give only the figure.

Look over these answered cases.
Molecule: Cc1ccc(OCCCCCCNCCO)c(C)c1
% Cell Death: 28
//
Molecule: CCCc1cc(O)c2c3c(c(=O)oc2c1)CN(C)CC3
% Cell Death: 44
//
Molecule: O=C(NC1CCCCC1)C(c1cccs1)N(CCc1ccccc1)C(=O)c1ccco1 (stereo not given)
% Cell Death: 54
//
Molecule: CCCCCC(=O)N1c2ccccc2N=C2CC(c3ccc(OC)c(OC)c3)CC(O)=C2C1c1ccc(C(F)(F)F)cc1 (stereo not given)
% Cell Death: 14

// field: % Cell Death; key: CC(Oc1ccc(NC(=O)c2cccs2)cc1)C(=O)c1ccc(Cl)cc1 (stereo not given) ; value = 1

---

Method description: MMV: MTT Cytotoxicity Assay Day 7 pi of Assay #6 (compound washed out Day 1 pi), U87-CD4-CCR5 cells, % cell death @ 5mM compound
Assay type: toxicity, cell-based
Stated conditions: human, u87-cd4-ccr5, 5000 µM
Measurement kind: % Cell Death
// return just the number, without any unit appended

Example molecules with recorded % Cell Death:
Molecule: Cc1cc(C)c2c(c1)OCN(Cc1ccccc1Cl)C2
% Cell Death: 20
//
Molecule: Cc1cc(Nc2cccc(F)c2)nc(NCc2ccccc2)n1
% Cell Death: 6
//
Molecule: c1ccc(Cn2c(N=Nc3c(Nc4ccccc4)ccc4ccccc34)nc3ccccc32)cc1
% Cell Death: 95

// field: % Cell Death; key: COc1cccc(Cn2c(Oc3ccccc3)nc3c2c(=O)n(C)c(=O)n3C)c1 ; value = 32

Value of measured % Cell Death for the entry CC(C)(C)CC(C)(C)NCC(O)COc1ccc2c(c1)CCC2.Cl (stereo unspecified) : 2

Item: CCOc1ccc(CN2CCN(CC(O)COc3ccc(OCC(O)CN4CCN(Cc5ccc(OCC)cc5)CC4)cc3)CC2)cc1 (stereo unspecified) | % Cell Death: 65

Input CCOc1ccc2c(c1)CN(Cc1ccc(Cl)cc1)CO2 . Output % Cell Death: 11

---

Method description: MMV: MTT Cytotoxicity Assay Day 7 pi of Assay #10 (NO washout), U87-CD4-CCR5 cells, % cell death @ 5mM compound
Format: toxicity, cell-based
Stated conditions: human, u87-cd4-ccr5, 5000 µM
Binary call on % Cell Death with cut-off 30: strictly below means MET, and equality or higher means NOT MET.

Please review the following examples before continuing.
Compound: CCCc1c(C)nc2ccc(Br)cc2c1O
Class: MET
--
Compound: Cc1cccc(N2C(=O)C3C(C2=O)C2(c4ccccc4)C(=O)C3(c3ccccc3)C(c3ccc4c(c3)OCO4)=C2c2ccc3c(c2)OCO3)c1 (configuration not stated)
Class: MET
--
Compound: CCN(CC)c1cc(C)c2cc(NC(=O)c3cccc(OC)c3)ccc2n1
Class: NOT MET
--
Compound: COc1cc(C(=O)ON=C(N)Cc2cccc3ccccc23)cc(OC)c1OC
Class: NOT MET
--
Compound: CCOC(=O)C1=C(c2ccccc2)N=c2sc(=Cc3cc(C)n(-c4ccc(F)cc4)c3C)c(=O)n2C1c1cccc(OC)c1OC (configuration not stated)
Class: MET

// query Is 30 strictly greater than the compound's reported % Cell Death? compound: CC(=O)c1sc(NC(=O)Nc2ccc(C)cc2C)nc1C
// result NOT MET

// query Find out if reported % Cell Death for COc1ccc(NC(=O)C2c3ccccc3C(=O)N(CC(C)C)C2c2cccs2)cc1Cl (configuration not stated) is less than 30
// result MET

// query % Cell Death under 30? Item: CSC1=NC(=Nc2c(C)cccc2C)C2(CCC(C(C)(C)C)CC2)N1c1ccc(Cl)cc1 (configuration not stated)
// result MET

// query Identify whether the compound O=C(Nc1ccc(-c2nc3ccccc3[nH]2)cc1)c1ccc(Cl)c(Cl)c1 records % Cell Death below 30.
// result NOT MET

// query Hello, is % Cell Death of the following compound strictly smaller than 30? CCCCCC(=O)N1c2ccccc2N=C2CC(c3ccc(OC)c(OC)c3)CC(O)=C2C1c1ccc(C(F)(F)F)cc1 (configuration not stated)
// result MET

// query Decide: % Cell Death of c1ccc(CNc2nc(Nc3ccccc3)nc3ccccc23)cc1 strictly below 30?
// result MET

// query Identify whether the compound CN1CCN(c2c3c(c(C#N)c4nc5ccccc5n24)CCC3)CC1 records % Cell Death below 30.
// result MET

---

# key: entry, value: % Cell Death
Method description: MMV: MTT Cytotoxicity Assay Day 3 pi, U87-CD4-CXCR4 cells, % cell death @ 5mM compound
Assay type: toxicity, cell-based
Stated conditions: human, u87-cd4-cxcr4, 5000 µM
Give your answer as a number; write no unit.

Compound: Oc1ccc(-c2nc(-c3ccc4oc5ccc(-c6[nH]c(-c7ccc(O)cc7)nc6-c6ccccc6)cc5c4c3)c(-c3ccccc3)[nH]2)cc1
% Cell Death: 46
--
Compound: COc1cccc(NC(=O)[C@H](C(C)C)n2c(=O)[nH]c3ccccc3c2=O)c1
% Cell Death: 20
--
Compound: COc1cccc(-c2nn(C)c3sc(C(=O)NCCN4CCN(c5ccccc5F)CC4)cc23)c1
% Cell Death: 64

Reported % Cell Death of O=C(CSc1ccc2nnc(-c3cccc(F)c3)n2n1)Nc1ccc2c(c1)OCO2 : 54

For reference, reported % Cell Death for Cc1ccc(-c2nc3ccccc3o2)cc1NCc1cc(Cc2ccccc2)ccc1O stands at 15

The measured % Cell Death associated with CCCCNc1nc(NC(C)(C)C)nc(NC(C)(C)C)n1 reads 61

Entry Brc1ccc(Nc2nc3ccccc3nc2Nc2ccc(Br)cc2)cc1 ; % Cell Death = 20

Notebook: CCOC(=O)c1ccc2[nH]c(-c3ccccc3)cc(=O)c2c1 , % Cell Death read as 99

So, CCCn1c(=N)c(C(=O)NC2CCCCC2)cc2c(=O)n3cccc(C)c3nc21 ? Its % Cell Death was 35

// Cc1ccc2c(C)nc(Nc3nc(C)cc(-c4ccccc4)n3)nc2c1 : % Cell Death value = 99

Notebook: Cc1ccc(N2C(=O)C3C(C2=O)C2(c4ccccc4)C(=O)C3(c3ccccc3)C(c3ccccc3)=C2c2ccccc2)cc1 (stereo not given) , % Cell Death read as 36

---

Method description: MMV: MTT Cytotoxicity Assay Day 3 pi, U87-CD4-CXCR4 cells, % cell death @ 5mM compound
Format: toxicity, cell-based
Stated conditions: human, u87-cd4-cxcr4, 5000 µM
Entries and their % Cell Death values follow.
Answer with a number only.

Below: 2 compounds and their reported % Cell Death.
Compound: Cc1ccc(C2CC(C(F)(F)F)n3nc(C(=O)N4CCN(C(c5ccccc5)c5ccccc5)CC4)cc3N2)cc1 (centres undefined)
% Cell Death: 64

Compound: CC1CN(C(=O)c2sc3ccccc3c2Cl)CC(C)O1 (centres undefined)
% Cell Death: 47

Reported % Cell Death of CCOc1ccc(CCNC(=O)c2cccs2)cc1OCC : 30

response.value for CCOC(=O)C1=C(c2ccccc2)N=c2sc(=Cc3cc(C)n(-c4ccc(F)cc4)c3C)c(=O)n2C1c1cccc(OC)c1OC (centres undefined) (field: % Cell Death) = 45

---

This section presents compounds with their documented % Cell Death values.
Method description: MMV: MTT Cytotoxicity Assay Day 3 pi, U87-CD4-CCR5 cells, % cell death @ 5mM compound
Assay type: toxicity, cell-based
Stated conditions: human, u87-cd4-ccr5, 5000 µM
Form rule: numeric answer, no unit written next to it.

Some solved cases for reference:
Compound: COc1ccc(CNC(=O)c2cc3c(=O)n4ccccc4nc3n(CCc3ccccc3)c2=N)cc1
% Cell Death: 14

Compound: C=CCc1c(C)nc2ccccc2c1O
% Cell Death: 4

Compound: CCOc1cc(Cl)c(C(C)NC(=O)c2ccccc2)cc1OCC (configuration not stated)
% Cell Death: 28

Compound: CCOC(=O)C1=C(C)N=c2sc(=Cc3ccccc3O)c(=O)n2C1c1ccc(OC)c2ccccc12 (configuration not stated)
% Cell Death: 105

Compound: O=C(NCC1Cc2cccc(-c3ccncc3)c2O1)c1csc2c1CCCC2 (configuration not stated)
% Cell Death: 4

Please fill in: % Cell Death reported for O=C(NCCCN1CCC(N2CCCCC2)CC1)C1=Cc2cc(Br)ccc2OC1 = 52

The value of % Cell Death measured for the compound CCOc1ccc(CN2CCN(CC(O)COc3ccc(OCC(O)CN4CCN(Cc5ccc(OCC)cc5)CC4)cc3)CC2)cc1 (configuration not stated) turned out to be -5
